Exercise: state measured Substrate specificity, enzyme GFLOMT1 for each of the compounds provided.
- Measurement Target: GFLOMT1 (Glaucium flavum, UniProt A0A0H4IRD0)
- Experiment Summary: Standard OMT assay, substrate specificity of recombinant GFLOMT1
- Type: biochemical
- Measurement Parameters: substrate conversion in the standard OMT assay in the presence of SAM (percent)
API doc: respond with a numeric literal and nothing else, no unit.

Tell me measured Substrate specificity, enzyme GFLOMT1 for Oc1ccc(CC2NCCc3cc(O)c(O)cc32)cc1O (racemic) [(R,S)-Norlaudanosoline, Norlaudanosoline] please.
96

Please report the measured Substrate specificity, enzyme GFLOMT1 for COc1ccc(C[C@H]2c3cc(O)c(OC)cc3CCN2C)cc1O [(S)-Reticuline, Reticuline]
6

Check the records and state Substrate specificity, enzyme GFLOMT1 for COc1cc2c(cc1O)C1Cc3ccc(OC)c(O)c3CN1CC2 (racemic) [(R,S)-Scoulerine, Scoulerine]
32
